target: UniProtKB Q5BJF2
Sequence (Q5BJF2 whole entry): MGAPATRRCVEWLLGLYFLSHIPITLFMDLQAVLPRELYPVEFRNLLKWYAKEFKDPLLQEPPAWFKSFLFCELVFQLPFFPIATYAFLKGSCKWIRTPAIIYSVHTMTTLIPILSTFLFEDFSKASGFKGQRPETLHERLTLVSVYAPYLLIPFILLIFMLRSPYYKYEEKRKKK
pIC50: −log10 of the molar value.
assay_endpoint: pIC50

pIC50 for UniProtKB Q5BJF2 with input CNCC1CCOC1(c1ccccc1)c1ccccc1 (stereo not shown) [AE37Met] equals < 5.00

* * *

test system: sodium channels; test: sodium channel affinity; type: binding
assay_endpoint: pIC50
By convention, pIC50 is the negative base-10 log of a molar concentration.

Data point: CNCC1CCOC1(c1ccccc1)c1ccccc1 (stereo not shown) [AE37Met] ; pIC50 = 5.24

* * *

molecular target: M3 muscarinic receptors (Homo sapiens)
Sequence (P20309 whole entry): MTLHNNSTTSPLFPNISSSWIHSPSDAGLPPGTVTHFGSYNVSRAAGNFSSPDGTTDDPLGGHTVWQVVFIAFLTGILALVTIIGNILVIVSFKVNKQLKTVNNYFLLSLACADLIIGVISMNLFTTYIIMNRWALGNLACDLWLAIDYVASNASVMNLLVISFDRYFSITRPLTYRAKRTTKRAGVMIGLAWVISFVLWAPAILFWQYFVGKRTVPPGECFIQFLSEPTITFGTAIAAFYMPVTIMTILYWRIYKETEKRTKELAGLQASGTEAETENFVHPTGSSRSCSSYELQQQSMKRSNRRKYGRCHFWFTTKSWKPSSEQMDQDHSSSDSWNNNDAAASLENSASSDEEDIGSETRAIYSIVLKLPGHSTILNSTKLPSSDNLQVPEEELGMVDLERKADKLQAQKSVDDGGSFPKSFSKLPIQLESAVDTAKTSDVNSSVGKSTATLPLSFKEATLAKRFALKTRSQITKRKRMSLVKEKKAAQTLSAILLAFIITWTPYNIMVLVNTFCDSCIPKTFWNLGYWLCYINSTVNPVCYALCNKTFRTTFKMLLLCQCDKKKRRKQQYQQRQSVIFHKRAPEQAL
assay_endpoint: pIC50
By convention, pIC50 is the negative base-10 log of a molar concentration.

Data point: CNCC1CCOC1(c1ccccc1)c1ccccc1 (stereo not shown) [AE37Met] ; pIC50 = 5.36

Data credit: patent US20160009674A1
